test system: THP-1; assay: Cytotoxicity against human THP1 cells assessed as reduction of cell viability after 48 hrs; format: cell-based; conditions: THP-1, 48 h
Endpoint: IC50 (µM)
Lab book: enter the figure in µM, no units written.

Bench note: what IC50 did [O-][n+]1onc2cc(C=Cc3ccc4c(c3)OCO4)ccc21 show? 81

Would you mind doing [O-][n+]1onc2cc(C=Cc3ccc(Cl)cc3)ccc21 as well? 66.7

Would you mind doing [O-][n+]1onc2cc(/C=C\c3ccc(Cl)cc3)ccc21 as well? 97

Would you mind doing [O-][n+]1onc2cc(/C=C/c3ccccc3)ccc21 as well? 149

Would you mind doing [O-][n+]1onc2cc(/C=C/c3ccc4c(c3)OCO4)ccc21 as well? 220

Would you mind doing [O-][n+]1onc2cc(/C=C\c3ccc4c(c3)OCO4)ccc21 as well? 120

----------
Assignment: determine reported IC50 for the given compounds.
test system: THP-1; test: Cytotoxicity against human THP1 cells assessed as reduction of cell viability after 48 hrs; format: cell-based; settings: THP-1, 48 h

Bench note: what IC50 did C(=C/c1ccc2nonc2c1)/c1ccc2c(c1)OCO2 show? > 400 µM

Would you mind doing [O-][n+]1onc2cc(/C=C/c3ccc(Cl)cc3)ccc21 as well? > 200 µM

Would you mind doing CN(C)c1ccc(/C=C/c2ccc3c(c2)no[n+]3[O-])cc1 as well? > 400 µM
